Listed here are molecules together with their documented melting point.

chemical structure	melting point
CC(=O)Oc1c(C(C)(C)C)cc(/C=[N+](/C)[O-])cc1C(C)(C)C	136 to 143 °C
CCC(=O)Oc1c(C(C)(C)C)cc(/C=[N+](\[O-])C(C)(C)C)cc1C(C)(C)C	202 to 222 °C
CC(C)(C)CC(C)(C)[N+]([O-])=Cc1cc(C(C)(C)C)c(O)c(C(C)(C)C)c1	113 to 115 °C
